- Study target: human α-thrombin (Haematologic Technologies) (human), P00734
- Experiment notes: thrombin inhibition; sulfated at Y35
- Condition details: chains peptide; modification not given
Endpoint name: Ki (nM)
State just the number; it will be interpreted in nM.

Record SEQ ID No:1 (MDL-2) Y35 (sulfated at Y35) (peptide) YPESDSAKDDGNQEKEKALLVKVQERSDDGDYDEYDNDETTHTPDPSAPTARPRIREHQA , field Ki: 2.77
